Values were extracted from paper PMC9009886.

- Test system: amastigote forms of L. (V.) guyanensis in human monocytes
- experiment: Assay with amastigote forms of L. (V.) guyanensis in human monocytes
- Type: cell-based, Leishmania (Viannia) guyanensis
- measurement.context: 24 h
readout.kind: IC50 (µM)
Just the number please, in µM, no unit attached.

Query: Can you look up IC50 on amastigote forms of L. (V.) guyanensis in human monocytes for C1N2CN3CN1CP(C2)C3.C1N2CN3CN1CP(C2)C3.C1N2CN3CN1CP(C2)C3.C1N2CN3CN1CP(C2)C3.F[B-](F)(F)F.[Ag+] [Ag1, [Ag (PTA)4]BF4] ?
Result: 109

---

- Tested on: amastigote forms of L. (V.) guyanensis in human monocytes
- experiment: Assay with amastigote forms of L. (V.) guyanensis in human monocytes
- Assay type: cell-based, Leishmania (Viannia) guyanensis
- measurement.context: 72 h
readout.kind: pIC50
Scale: pIC50 equals -log10([C]), with [C] in mol/L.

Query: Name the recorded pIC50 for C1N2CN3CN1CP(C2)C3.C1N2CN3CN1CP(C2)C3.C1N2CN3CN1CP(C2)C3.C1N2CN3CN1CP(C2)C3.F[B-](F)(F)F.[Ag+] [Ag1, [Ag (PTA)4]BF4] .
Result: 3.57

---

- System: amastigote forms of L. (L.) amazonensis internalized in murine peritoneal macrophages
- experiment: Assay with amastigote forms of L. (L.) amazonensis in peritoneal macrophages
- Type: cell-based, Leishmania (Leishmania) amazonensis
- measurement.context: 72 h
readout.kind: pIC50
// pIC50: -log10(molar conc.)

Query: Entry under review: C1N2CN3CN1CP(C2)C3.C1N2CN3CN1CP(C2)C3.C1N2CN3CN1CP(C2)C3.C1N2CN3CN1CP(C2)C3.F[B-](F)(F)F.[Ag+] [Ag1, [Ag (PTA)4]BF4] . Reported pIC50?
Result: 4.62

---

- Tested on: promastigote forms of Leishmania (Leishmania) amazonensis (IM5584)
- experiment: Assay with promastigote forms, L. (L.) amazonensis
- Type: cell-based
- measurement.context: L. (L.) amazonensis (IM5584), 72 h; read-out: IC50 values, promastigote forms
readout.kind: pIC50
Expect pIC50 as a plain number equal to -log10 of the molar concentration.

Query: Param item = C1N2CN3CN1CP(C2)C3.C1N2CN3CN1CP(C2)C3.C1N2CN3CN1CP(C2)C3.C1N2CN3CN1CP(C2)C3.F[B-](F)(F)F.[Ag+] [Ag1, [Ag (PTA)4]BF4] ; retrieve measured pIC50.
Result: 3.98

---

- Tested on: amastigote forms of L. (V.) guyanensis in murine peritoneal macrophages
- experiment: Assay with amastigote forms of L. (V.) guyanensis in peritoneal macrophages
- Assay type: cell-based, Leishmania (Viannia) guyanensis
- measurement.context: 24 h
readout.kind: pIC50
pIC50 here: minus log base 10 of the concentration, concentration in moles per litre.

Query: What value of measured pIC50 is listed for C1N2CN3CN1CP(C2)C3.C1N2CN3CN1CP(C2)C3.C1N2CN3CN1CP(C2)C3.C1N2CN3CN1CP(C2)C3.F[B-](F)(F)F.[Ag+] [Ag1, [Ag (PTA)4]BF4] ?
Result: 4.04

---

- Tested on: amastigote forms of L. (L.) amazonensis internalized in murine peritoneal macrophages
- experiment: Assay with amastigote forms of L. (L.) amazonensis in peritoneal macrophages
- Assay type: cell-based, Leishmania (Leishmania) amazonensis
- measurement.context: 24 h
readout.kind: pIC50
Value format note: pIC50 is -log10 of concentration (mol/L); just state the number.

Query: Requested read-out: pIC50. Entry: C1N2CN3CN1CP(C2)C3.C1N2CN3CN1CP(C2)C3.C1N2CN3CN1CP(C2)C3.C1N2CN3CN1CP(C2)C3.F[B-](F)(F)F.[Ag+] [Ag1, [Ag (PTA)4]BF4]
Result: 5.22
